Molecular target: T1, human CD81 mutant L165A (human, UniProt P60033 1-236, limits assumed)
T1 construct: as m30; not shown: C-terminal V5 and 6xHis tags
T1 sequence: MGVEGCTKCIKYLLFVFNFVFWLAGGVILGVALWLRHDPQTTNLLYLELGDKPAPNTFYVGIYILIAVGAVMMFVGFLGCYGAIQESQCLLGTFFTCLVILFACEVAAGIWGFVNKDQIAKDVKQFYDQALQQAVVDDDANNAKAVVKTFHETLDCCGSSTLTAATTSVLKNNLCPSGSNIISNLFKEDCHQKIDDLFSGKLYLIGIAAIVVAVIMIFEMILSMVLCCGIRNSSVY
Assay: ELISA
Known relative binding affinity of a selection of binders

Completed entries (count: 3):
BINDER: 002-F05 (antibody, human IgG4 S228P, lambda, V domains shown, IgG4 S228P) VH: EVQLLESGGGLVQPGGSLRLSCAASGFTFSSNYMSWVRQAPGKGLEWVSYISSSSTYTDYADSVKGRFTISRDNSKNTLYLQMNSLRAEDTAVYYCARYSYGRDDFDYWGQGTLVTVSS VL: QSVLTQPASASGTPGQRVTISCTGSTSNIGAGYDTHWYQQLPGTAPKLLIYGNSNRPSGVPDRFSGSKSGTSASLAISGLRSEDEADYYCQSYDTNLNVWVFGGGTKLTVLG
relative binding affinity: < 20%
--
BINDER: 003-F08 (antibody, human IgG4 S228P, lambda, V domains shown, IgG4 S228P) VH: EVQLLESGGGLVQPGGSLRLSCAASGFTFSSNYMSWVRQAPGKGPEWVSYISSSSTYADYADSVKGRFTISRDNSKNTLYLQMNSLRAEDTAVYYCARYSYGRDNFDYWGQGTLVTVSS VL: QSVLTQPSSASGTPGQRVTISCTGSTSNIGAGYDTHWYQQLPGTAPKLLIYGNSNRPSGVPDRFSGSKSGTSASLAISGLRSEDEADYYCQSYDTNLSAWVFGGGTKLTVLG
relative binding affinity: < 20%
--
BINDER: 002-H02 (antibody, human IgG4 S228P, lambda, V domains shown, IgG4 S228P) VH: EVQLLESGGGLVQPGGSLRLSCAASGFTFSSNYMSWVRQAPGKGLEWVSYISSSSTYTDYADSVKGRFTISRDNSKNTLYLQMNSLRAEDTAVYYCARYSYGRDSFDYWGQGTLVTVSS VL: QSVLTQPSSASGTPGQRVTISCTGSTSNIGAGYGTHWYQQLPGTAPKLLIYGNSNRPSGVPDRFSGSKSGTSASLAISGLRSEDEADYYCQSYDTNLSVWVFGGGTKLTVLG
relative binding affinity: < 20%

Name the recorded relative binding affinity of the item 002-A07 S115G (antibody, human IgG4 S228P, lambda, V domains shown, IgG4 S228P; glycosylation site mutant of 002-A07 VL) VH: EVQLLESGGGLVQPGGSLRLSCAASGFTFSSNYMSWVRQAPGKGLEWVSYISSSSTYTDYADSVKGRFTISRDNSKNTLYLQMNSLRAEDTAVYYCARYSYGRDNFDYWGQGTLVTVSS VL: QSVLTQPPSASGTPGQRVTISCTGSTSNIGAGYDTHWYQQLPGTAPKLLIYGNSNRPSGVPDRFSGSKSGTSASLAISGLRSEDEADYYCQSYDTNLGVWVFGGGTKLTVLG in your answer.
< 20%

Name the recorded relative binding affinity of the item 002-A07 N113G (antibody, human IgG4 S228P, lambda, V domains shown, IgG4 S228P; glycosylation site mutant of 002-A07 VL) VH: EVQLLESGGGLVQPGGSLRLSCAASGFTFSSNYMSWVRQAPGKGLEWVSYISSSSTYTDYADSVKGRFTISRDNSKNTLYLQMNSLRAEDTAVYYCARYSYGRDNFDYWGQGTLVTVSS VL: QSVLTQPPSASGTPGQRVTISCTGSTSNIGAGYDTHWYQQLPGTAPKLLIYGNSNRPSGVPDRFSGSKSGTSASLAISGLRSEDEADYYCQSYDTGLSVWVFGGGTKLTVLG in your answer.
< 20%

Name the recorded relative binding affinity of the item 002-D10 (antibody, human IgG4 S228P, lambda, V domains shown, IgG4 S228P) VH: EVQLLESGGGLVQPGGSLRLSCAASGFTFSSNYMSWVRQAPGKGPEWVSYISSSSTYTDYADSVKGRFTISRDNSKNTLYLQMNSLRAEDTAVYYCARYSYGRDNFDYWGQGTLVTVSS VL: QSVLTQPSSASGTPGQRVTISCTGSTSNIGAGYDTHWYQQLPGTAPKLLIYGNSNRPSGVPDRFSGSKSGTSASLAVSGLRSEDEAEYYCQSYDTNLSGWVFGGGTKLTVLG in your answer.
< 20%

Name the recorded relative binding affinity of the item 002-D03 (antibody, human IgG4 S228P, lambda, V domains shown, IgG4 S228P) VH: EVQLLESGGGLVQPGGSLRLSCAASGFTFRSNYMSWVRQAPGKGLEWVSYISSSSTYTDYADSVKGRFTISRDNSKNTLYLQMNSLRAEDTAVYYCARYSYGRDNFDYWGQGTLVTVSS VL: QSVLTQPPSASGTPGQRVTISCTGSTSNIGAGYDTHWYQQLPGTAPKLLIYGNSNRPSGVPDRFSGSKSGTSASLAISGLRSEDEADYYCQSYDTNLSVWVFGGGTKLTVLG in your answer.
< 20%

Name the recorded relative binding affinity of the item 002-D08 (antibody, human IgG4 S228P, lambda, V domains shown, IgG4 S228P) VH: EVQLLESGGGLVQPGGSLRLSCATSGFPFSSNYMSWVRQAPGKGLEWVSYISSSSTYSDYADSVKGRFSISRDNSKNTLYLQMNSLRAEDTAVYYCARYSYGRDNFDYWGQGTLVTVSS VL: QSVLTQPSSASGTPGQRVTISCTGSTSNIGAGYATHWYQQLPGTAPKLLIYGNSNRPSGVPDRFSGSKSGTSASLAISGLRSEDEADYYCQSYDTNLSVWVFGGGTKLTVLG in your answer.
< 20%

Name the recorded relative binding affinity of the item 002-B05 (antibody, human IgG4 S228P, lambda, V domains shown, IgG4 S228P) VH: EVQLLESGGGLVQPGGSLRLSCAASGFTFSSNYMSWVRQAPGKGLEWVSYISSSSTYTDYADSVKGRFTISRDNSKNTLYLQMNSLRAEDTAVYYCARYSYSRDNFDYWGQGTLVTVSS VL: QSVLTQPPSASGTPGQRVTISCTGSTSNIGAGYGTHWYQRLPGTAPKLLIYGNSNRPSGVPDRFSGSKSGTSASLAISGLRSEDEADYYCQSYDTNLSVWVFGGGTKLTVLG in your answer.
< 20%

Name the recorded relative binding affinity of the item 002-A07 S115N (antibody, human IgG4 S228P, lambda, V domains shown, IgG4 S228P; glycosylation site mutant of 002-A07 VL) VH: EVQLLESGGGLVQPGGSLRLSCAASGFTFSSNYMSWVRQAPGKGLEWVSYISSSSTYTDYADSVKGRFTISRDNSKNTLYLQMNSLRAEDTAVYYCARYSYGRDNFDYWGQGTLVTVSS VL: QSVLTQPPSASGTPGQRVTISCTGSTSNIGAGYDTHWYQQLPGTAPKLLIYGNSNRPSGVPDRFSGSKSGTSASLAISGLRSEDEADYYCQSYDTNLNVWVFGGGTKLTVLG in your answer.
< 20%

This collection of values is drawn from patent US20150139990A1.
